Would you mind telling me the reported TGI of each entry?
# System: HOP-62 NSCLC
# TEST PROTOCOL: NCI tumour cell line growth inhibition, 48 h

// below: answered molecules
[
  {
    "MOLECULE": "CN(C)CCCn1c2ccccc2c2cnccc21",
    "TGI": "> 100 µM"
  },
  {
    "MOLECULE": "COc1ccc(CNc2nc(NCc3ccc(OC)cc3)nc(NC3CCCCC3)n2)cc1",
    "TGI": "> 100 µM"
  },
  {
    "MOLECULE": "Cc1ncc([N+](=O)[O-])n1CCN=[N+]=[N-]",
    "TGI": "> 100 µM"
  },
  {
    "MOLECULE": "CC(C)OP(=O)(OC(C)C)C(N(C)C)P(=O)(OC(C)C)OC(C)C.[Cl][Sn]([Cl])([Cl])[c]1ccccc1",
    "TGI": "7.34 µM"
  },
  {
    "MOLECULE": "CCCCN(CCCC)C(=NCc1ccccc1)NC#N",
    "TGI": "55.5 µM"
  }
]

For each of the molecules below, note its TGI.
1. CCOC(=O)CCC1(C(=O)OC)CCCC1=O (stereo not drawn)
2. O=[N+]([O-])c1ccc2nc3ccc([N+](=O)[O-])cn3c2c1
3. CC1Cc2c(N(C)C)ncnc2N(C)c2ccc(Cl)cc21 (stereo not drawn)
4. Cc1ccc(NC(=O)CCC(=O)C2CC(=O)CC/C2=N\NC(=O)c2cc3ccccc3cc2O)cc1C (stereo not drawn)

Response:
1. > 100 µM
2. 39.1 µM
3. 73.4 µM
4. > 100 µM

###

# Test system: BT-549 breast
# TEST PROTOCOL: NCI tumour cell line growth inhibition, 48 h
Output: class label from TGI. Mapping: lower segment: < 30 µM; middle segment: ≥ 30 µM and < 40 µM; upper segment: ≥ 40 µM

Prompt: # classify by TGI band: CC(=O)Oc1ccc2cc(Oc3ccc(Cl)cc3)c(=O)oc2c1
Response: upper segment

Prompt: # classify by TGI band: COc1ccc(CNc2nc(NCc3ccc(OC)cc3)nc(NC3CCCCC3)n2)cc1
Response: middle segment

Prompt: # classify by TGI band: CC1(C)CC(=O)C(/C=N/c2nc(-c3ccc(Br)cc3)cs2)=C(O)C1
Response: middle segment

Prompt: # classify by TGI band: CC1(C)OC[C@@H](/C=C\CCO[Si](c2ccccc2)(c2ccccc2)C(C)(C)C)N1C(=O)c1ccccc1
Response: upper segment

Prompt: # classify by TGI band: Cc1nnc([S-])s1.[Au+].c1ccc([PH+](c2ccccc2)c2ccccc2)cc1
Response: lower segment

Prompt: # classify by TGI band: O=c1oc(-c2ccc(O)c(O)c2)cc2cc(O)cc(O)c12
Response: upper segment

###

# Test system: MOLT-4 leukemia
# TEST PROTOCOL: NCI tumour cell line growth inhibition, 48 h
Would you mind telling me the reported TGI of each entry?

// below: answered compounds
[
  {
    "COMPOUND": "COc1ccc(C(=O)Cc2cc(OC)ccc2OC)cc1",
    "TGI": "> 100 µM"
  },
  {
    "COMPOUND": "COc1cc(C2C3=C(COC3=O)N(CCO)c3cc4c(cc32)CCC4)cc(OC)c1O (centres undefined)",
    "TGI": "> 32.5 µM"
  },
  {
    "COMPOUND": "c1ccc(C2=NN3CN(N2)c2ccccc2OCCCOc2ccccc23)cc1",
    "TGI": "> 100 µM"
  }
]

Prompt: Notebook entry, MOLT-4 leukemia assay: TGI of Cc1ccc2ccccc2c1CC1S(=O)(=O)OCCOS1(=O)=O = ?
Response: 27.5 µM
